# System: Escherichia coli
# Procedure Summary: Antibacterial activity against aminoglycosides-resistant Escherichia coli BL21 harboring pET11d encode for APH(3')-2b resistance enzyme by double microdilution method
# Format: functional
molecules and their reported MIC
Just the number in µg/mL, nothing appended.

Query: Return MIC for the following molecule: `NC[C@H]1O[C@H](O[C@H]2[C@H](O)[C@@H](O[C@H]3O[C@H](CO)[C@@H](O)[C@H](N)[C@H]3O)[C@H](NC(=O)CCCc3cn(Cc4ccc(CN5CCN(c6cc7c(cc6F)c(=O)c(C(=O)O)cn7C6CC6)CC5)cc4)nn3)C[C@@H]2N)[C@H](O)[C@@H](O)[C@@H]1O`
Result: 0.8

Query: Look up MIC of `NC[C@H]1O[C@H](O[C@H]2[C@H](O)[C@@H](O[C@H]3O[C@H](CO)[C@@H](O)[C@H](N)[C@H]3O)[C@H](NCc3cn(Cc4ccc(CN5CCN(c6cc7c(cc6F)c(=O)c(C(=O)O)cn7C6CC6)CC5)cc4)nn3)C[C@@H]2N)[C@H](O)[C@@H](O)[C@@H]1O` and report it.
Result: 0.1

Query: Respond only with MIC recorded for `NC[C@H]1O[C@H](O[C@H]2[C@H](O)[C@@H](O[C@H]3O[C@H](CO)[C@@H](O)[C@H](N)[C@H]3O)[C@H](NCc3cn(Cc4cccc(CN5CCN(c6cc7c(cc6F)c(=O)c(C(=O)O)cn7C6CC6)CC5)c4)nn3)C[C@@H]2N)[C@H](O)[C@@H](O)[C@@H]1O`
Result: 0.8
